biological target: BRAF V600E (Homo sapiens, UniProt P15056+Q96SW2, V600E); construct: knock-in of the HiBiT tag to the endogenous BRAF V600E locus; host or cells: A375.10 (A375 clonal line, CRISPR HiBiT knock-in at the endogenous BRAF V600E locus); test: BRAF V600E HiBiT Degradation Assay; assay type: cell-based; settings: A375.10 cells, BRAF V600E, 2 hours; residual protein remaining; read-out: HiBiT-Degradation A375.10 BRAF 2 hours Emax
Sequence (P15056 whole entry V600E): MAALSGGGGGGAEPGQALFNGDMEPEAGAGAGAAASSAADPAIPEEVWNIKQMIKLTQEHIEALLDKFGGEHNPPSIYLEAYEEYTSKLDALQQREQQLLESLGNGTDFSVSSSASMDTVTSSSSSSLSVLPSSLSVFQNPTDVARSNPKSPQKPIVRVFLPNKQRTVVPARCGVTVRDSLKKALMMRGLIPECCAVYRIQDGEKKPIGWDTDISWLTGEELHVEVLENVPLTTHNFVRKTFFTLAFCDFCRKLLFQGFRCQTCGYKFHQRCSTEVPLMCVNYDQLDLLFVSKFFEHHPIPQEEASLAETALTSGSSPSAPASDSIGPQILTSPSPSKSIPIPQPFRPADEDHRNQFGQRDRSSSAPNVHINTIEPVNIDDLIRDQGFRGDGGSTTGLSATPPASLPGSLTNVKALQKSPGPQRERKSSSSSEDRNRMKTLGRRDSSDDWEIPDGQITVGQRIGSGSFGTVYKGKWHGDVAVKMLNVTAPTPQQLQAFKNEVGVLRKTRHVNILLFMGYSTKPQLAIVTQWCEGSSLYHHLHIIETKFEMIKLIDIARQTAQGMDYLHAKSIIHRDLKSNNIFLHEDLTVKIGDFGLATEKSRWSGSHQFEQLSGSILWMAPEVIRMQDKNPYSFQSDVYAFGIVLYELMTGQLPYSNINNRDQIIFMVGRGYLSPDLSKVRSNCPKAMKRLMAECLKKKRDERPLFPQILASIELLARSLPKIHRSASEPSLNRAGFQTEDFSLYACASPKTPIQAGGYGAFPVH
Sequence (Q96SW2 whole entry): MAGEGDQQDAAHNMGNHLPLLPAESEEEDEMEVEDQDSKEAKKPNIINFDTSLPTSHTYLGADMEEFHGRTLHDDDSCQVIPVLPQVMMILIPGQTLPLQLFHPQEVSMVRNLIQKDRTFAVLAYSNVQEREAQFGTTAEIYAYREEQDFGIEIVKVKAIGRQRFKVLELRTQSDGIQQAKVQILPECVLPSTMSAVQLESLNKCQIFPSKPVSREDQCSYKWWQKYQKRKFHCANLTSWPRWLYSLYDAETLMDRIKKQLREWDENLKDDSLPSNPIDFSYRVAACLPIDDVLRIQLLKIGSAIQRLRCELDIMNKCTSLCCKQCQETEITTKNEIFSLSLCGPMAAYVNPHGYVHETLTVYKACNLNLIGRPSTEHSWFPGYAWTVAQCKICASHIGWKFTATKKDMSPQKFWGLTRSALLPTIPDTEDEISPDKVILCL
Sequence (Q16531 whole entry partner): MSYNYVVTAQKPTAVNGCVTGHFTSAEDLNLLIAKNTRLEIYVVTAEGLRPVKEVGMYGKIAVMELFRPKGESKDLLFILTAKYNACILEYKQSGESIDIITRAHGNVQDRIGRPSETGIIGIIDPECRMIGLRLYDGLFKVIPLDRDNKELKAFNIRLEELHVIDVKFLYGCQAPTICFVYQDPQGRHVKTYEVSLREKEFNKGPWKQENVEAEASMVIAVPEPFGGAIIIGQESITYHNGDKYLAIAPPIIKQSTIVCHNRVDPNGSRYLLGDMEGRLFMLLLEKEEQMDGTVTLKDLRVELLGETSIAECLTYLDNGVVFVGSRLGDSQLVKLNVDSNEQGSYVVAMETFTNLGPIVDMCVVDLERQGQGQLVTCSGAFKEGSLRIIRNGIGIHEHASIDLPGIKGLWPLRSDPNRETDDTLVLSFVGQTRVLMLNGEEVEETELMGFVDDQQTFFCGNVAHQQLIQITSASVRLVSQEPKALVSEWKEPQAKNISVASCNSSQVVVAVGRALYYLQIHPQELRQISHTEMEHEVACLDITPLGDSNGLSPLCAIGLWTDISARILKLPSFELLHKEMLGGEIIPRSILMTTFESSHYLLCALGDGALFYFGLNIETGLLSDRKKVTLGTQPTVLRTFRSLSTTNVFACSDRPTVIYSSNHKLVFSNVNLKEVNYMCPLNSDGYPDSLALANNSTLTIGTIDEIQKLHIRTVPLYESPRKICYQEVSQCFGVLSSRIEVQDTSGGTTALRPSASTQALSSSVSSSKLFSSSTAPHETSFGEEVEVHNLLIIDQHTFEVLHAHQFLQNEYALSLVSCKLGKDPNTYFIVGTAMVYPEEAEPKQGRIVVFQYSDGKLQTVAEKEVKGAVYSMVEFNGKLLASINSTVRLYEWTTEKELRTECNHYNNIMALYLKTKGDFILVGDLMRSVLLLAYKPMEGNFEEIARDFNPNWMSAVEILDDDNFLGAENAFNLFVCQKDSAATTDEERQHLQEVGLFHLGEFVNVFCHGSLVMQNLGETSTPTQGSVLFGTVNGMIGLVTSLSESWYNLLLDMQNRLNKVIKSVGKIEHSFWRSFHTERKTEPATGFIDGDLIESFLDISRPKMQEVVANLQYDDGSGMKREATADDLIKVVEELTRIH
Each entry below lists one item and its recorded Emax value.

{"Molecule": "CC(C)S(=O)(=O)Nc1ccc(F)c(Oc2ccc3ncn([C@H]4COC5(CCN(C6CC7(C6)CN(c6cc8c(cc6F)c(N6CCC(=O)NC6=O)nn8C)C7)CC5)C4)c(=O)c3c2)c1C#N", "Emax": "50 to 90%"}
{"Molecule": "Cn1nc(N2CCC(=O)NC2=O)c2cc(F)c(C3CCC(N4CCC5(CC4)C[C@@H](n4cnc6ccc(Oc7c(F)ccc(NS(=O)(=O)N8CC[C@@H](F)C8)c7C#N)cc6c4=O)CO5)CC3)cc21 (single isomer, unassigned)", "Emax": "< 50%"}
{"Molecule": "CCN(C)S(=O)(=O)Nc1ccc(F)c(Oc2ccc3ncn([C@H]4COC5(CCN(C6CCC(c7cc8c(cc7F)c(N7CCC(=O)NC7=O)nn8C)CC6O)CC5)C4)c(=O)c3c2)c1C#N (single isomer, unassigned)", "Emax": "50 to 90%"}
{"Molecule": "CCN(C)S(=O)(=O)Nc1ccc(F)c(Oc2ccc3ncn([C@H]4COC5(CCN(C6CCC(c7ccc(NC8CCC(=O)NC8=O)cc7F)CC6)CC5)C4)c(=O)c3c2F)c1C#N (single isomer, unassigned)", "Emax": "< 50%"}
